Test system: Echinochloa crus-galli (ECHCG)
Test: Example B post-emergence herbicidal test, ECHCG
Type: in vivo
Settings: Echinochloa crus-galli, 312 h, rate 250 g/ha, evaluated after 13 days, scale 0-100, read-out: Post-emergence activity ECHCG (100=total damage to plant; 0=no damage to plant)
Listed below: pest or weed control at 250 g/ha values for each entry.
ASSAY_METRIC: pest or weed control at 250 g/ha (%)

| MOLECULE | SYSTEM_TESTED | ASSAY_METRIC | MEASURED_RESULT |
| --- | --- | --- | --- |
| Cc1cc(C)c(C2C(=O)C/C(=C\C3CCCOC3)C2=O)c(C)c1 (stereo not shown) | Echinochloa crus-galli (ECHCG) | pest or weed control at 250 g/ha | 100 |
| Cc1cc(C)c(C2C(=O)CC(CC3CCN(C(=O)c4ccccc4)C3)C2=O)c(C)c1 (stereo not shown) | Echinochloa crus-galli (ECHCG) | pest or weed control at 250 g/ha | 100 |
| Cc1cc(C)c(C2=C(OC(=O)C(C)(C)C)CC(CCC3CCOCC3)C2=O)c(C)c1 (stereo not shown) | Echinochloa crus-galli (ECHCG) | pest or weed control at 250 g/ha | 60 |
| Cc1cc(-c2ccccc2)cc(C)c1C1C(=O)CC(CC2CCOCC2)C1=O (stereo not shown) | Echinochloa crus-galli (ECHCG) | pest or weed control at 250 g/ha | 100 |

----------
Tested on: Alopecurus myosuroides (ALOMY)
Assay: Example B post-emergence herbicidal test, ALOMY
Assay type: in vivo
Conditions: Alopecurus myosuroides, 312 h, rate 250 g/ha, evaluated after 13 days, scale 0-100, read-out: Post-emergence activity ALOMY (100=total damage to plant; 0=no damage to plant)
Method: Seeds of a variety of test species were sown in standard soil in pots. […] After 13 days for pre and post-emergence, the test was evaluated (100=total damage to plant; 0=no damage to plant). […]
Rule for this label: Y means pest or weed control at 250 g/ha is less than 90%; N means pest or weed control at 250 g/ha is at least 90%.

| MOLECULE | CATEGORY |
| --- | --- |
| CC(=O)OC1=C(c2c(C)cc(C)cc2C)C(=O)/C(=C/C2CCN(C(C)=O)C2)C1 (centres unmarked) | Y |
| Cc1cc(C)c(C2=C(OC(=O)OC(C)C)CC(CC3CCOCC3)C2=O)c(C)c1 (centres unmarked) | N |
| Cc1cc(C)c(C2C(=O)CC(C(O)C3CCOCC3)C2=O)c(C)c1 (centres unmarked) | Y |
| CCC1(CC2CCOC2)CC(=O)C(c2c(C)cc(C)cc2C)C1=O (centres unmarked) | Y |
| Cc1cc(C)c(C2C(=O)CC(CC3CCC(C)O3)C2=O)c(C)c1 (centres unmarked) | Y |
| Cc1cc(C)c(C2C(=O)CC(CC3CCN(C(=O)c4cccs4)C3)C2=O)c(C)c1 (centres unmarked) | Y |
| Cc1cc(C)c(C2C(=O)CC(CC3CCN(C(=O)c4ccccc4)C3)C2=O)c(C)c1 (centres unmarked) | N |
| CCCCCCC(=O)OC1=C(c2c(C)cc(C)cc2C)C(=O)C(CC2CCOC2)C1 (centres unmarked) | N |
| Cc1cc(C)c(C2C(=O)C/C(=C\C3CCOCC3)C2=O)c(C)c1 (centres unmarked) | N |
| Cc1cc(-c2ccc(Cl)cc2F)cc(C)c1C1C(=O)C/C(=C\C2CCOC2)C1=O (centres unmarked) | Y |
| Cc1ccc(C(=O)N2CCC(CC3CC(=O)C(c4c(C)cc(C)cc4C)C3=O)CC2)cc1 (centres unmarked) | Y |

----------
Test system: Echinochloa crus-galli (ECHCG)
Experiment: Example B post-emergence herbicidal test, ECHCG
Type: in vivo
Conditions: Echinochloa crus-galli, 312 h, rate 250 g/ha, evaluated after 13 days, scale 0-100, read-out: Post-emergence activity ECHCG (100=total damage to plant; 0=no damage to plant)
Listed below: pest or weed control at 250 g/ha values for each entry.

| COMPOUND | UNIT_SPEC | pest or weed control at 250 g/ha |
| --- | --- | --- |
| Cc1cc(C)c(C2C(=O)CC(C(O)C3CCOCC3)C2=O)c(C)c1 (centres unmarked) | % | 70 |
| Cc1cc(-c2ccccc2F)cc(C)c1C1C(=O)CC(CC2CCOCC2)C1=O (centres unmarked) | % | 100 |
| Cc1cc(C)c(C2C(=O)CC(CC3CCN(C(=O)C4CCCC4)CC3)C2=O)c(C)c1 (centres unmarked) | % | 30 |
| Cc1cc(C)c(C2C(=O)CC(C)(CC3CCOC3)C2=O)c(C)c1 (centres unmarked) | % | 80 |
| Cc1cc(C)c(C2C(=O)CC(CC3CCN(C(=O)C(C)(C)CCl)C3)C2=O)c(C)c1 (centres unmarked) | % | 30 |
| Cc1cc(C)c(C2C(=O)C/C(=C\C3CCN(S(C)(=O)=O)C3)C2=O)c(C)c1 (centres unmarked) | % | 80 |
| Cc1cc(C)c(C2C(=O)CC(CC3CCN(C(=O)c4ccc(-c5ccccc5)cc4)CC3)C2=O)c(C)c1 (centres unmarked) | % | 20 |
| Cc1cc(-c2ccc(C(F)(F)F)cc2)cc(C)c1C1C(=O)CC(CC2CCOC2)C1=O (centres unmarked) | % | 60 |
| Cc1cc(C)c(C2C(=O)CC(CC3CCN(C(=O)c4cc(C)on4)CC3)C2=O)c(C)c1 (centres unmarked) | % | 90 |
| Cc1cc(C)c(C2=C(OC(=O)OC(C)(C)C)C/C(=C\C3CCN(C(=O)OC(C)(C)C)CC3)C2=O)c(C)c1 | % | 70 |
| Cc1cc(-c2ccc(Cl)cc2F)cc(C)c1C1C(=O)C/C(=C\C2CCOCC2)C1=O (centres unmarked) | % | 100 |
| Cc1cc(C)c(C2C(=O)C/C(=C\C3CCN(C(=O)OCc4ccccc4)CC3)C2=O)c(C)c1 (centres unmarked) | % | 30 |
| Cc1cc(C)c(C2C(=O)CC(CCC3CCOCC3)C2=O)c(C)c1 (centres unmarked) | % | 80 |
| COC1=C(c2c(C)cc(C)cc2C)C(=O)C(CC2CCOCC2)C1 (centres unmarked) | % | 20 |
| COCC(=O)N1CCC(CC2CC(=O)C(c3c(C)cc(C)cc3C)C2=O)CC1 (centres unmarked) | % | 80 |
| Cc1cc(C)c(C2C(=O)CC(CC3CCN(C(=O)Oc4ccccc4)CC3)C2=O)c(C)c1 (centres unmarked) | % | 90 |
| CCC(=O)N1CCC(CC2CC(=O)C(c3c(C)cc(C)cc3C)C2=O)CC1 (centres unmarked) | % | 70 |

----------
Tested on: Alopecurus myosuroides (ALOMY)
Test: Example B post-emergence herbicidal test, ALOMY
Type: in vivo
Settings: Alopecurus myosuroides, 312 h, rate 250 g/ha, evaluated after 13 days, scale 0-100, read-out: Post-emergence activity ALOMY (100=total damage to plant; 0=no damage to plant)
Listed below: pest or weed control at 250 g/ha values for each entry.
ASSAY_METRIC: pest or weed control at 250 g/ha

| COMPOUND | ASSAY_METRIC | MEASURED_RESULT |
| --- | --- | --- |
| CC(C)=CC(=O)N1CCC(CC2CC(=O)C(c3c(C)cc(C)cc3C)C2=O)C1 (centres unmarked) | pest or weed control at 250 g/ha | 80% |
| CCc1cc(C)cc(CC)c1C1C(=O)C(CC2CCOCC2)C(CC2CCOCC2)C1=O (centres unmarked) | pest or weed control at 250 g/ha | 100% |
| CCOC(=O)N1CCC(CC2CC(=O)C(c3c(C)cc(C)cc3C)C2=O)CC1 (centres unmarked) | pest or weed control at 250 g/ha | 70% |
| Cc1cc(C)c(C2C(=O)CC(C)(C(O)C3CCOCC3)C2=O)c(C)c1 (centres unmarked) | pest or weed control at 250 g/ha | 70% |
| Cc1cc(C)c(C2=C(OC(=O)C(C)(C)C)C/C(=C\C3CCSCC3)C2=O)c(C)c1 | pest or weed control at 250 g/ha | 30% |
| Cc1cc(C)c(C2C(=O)CC(CC3CCCOC3)C2=O)c(C)c1 (centres unmarked) | pest or weed control at 250 g/ha | 100% |
| CON1CCC(CC2CC(OC(=O)C(C)(C)C)=C(c3c(C)cc(C)cc3C)C2=O)CC1 (centres unmarked) | pest or weed control at 250 g/ha | 100% |
| Cc1cc(C)c(C2=C(OC(=O)C(C)C)CC(CC3CCOC3)C2=O)c(C)c1 (centres unmarked) | pest or weed control at 250 g/ha | 90% |

----------
Tested on: Lolium perenne (LOLPE)
Assay: Example B post-emergence herbicidal test, LOLPE
Assay type: in vivo
Settings: Lolium perenne, 312 h, rate 250 g/ha, evaluated after 13 days, scale 0-100, read-out: Post-emergence activity LOLPE (100=total damage to plant; 0=no damage to plant)
ASSAY_METRIC: pest or weed control at 250 g/ha (%)

| MOLECULE | UNIT_SPEC | MEASURED_RESULT |
| --- | --- | --- |
| CCS(=O)(=O)OC1=C(c2c(C)cc(C)cc2C)C(=O)C(CC2CCOC2)C1 (stereo not shown) [Compound P27] | % | 100 |
| COc1ccc(C(=O)N2CCC(CC3CC(=O)C(c4c(C)cc(C)cc4C)C3=O)CC2)cc1 (stereo not shown) [Compound T97] | % | 60 |
| Cc1cc(C)c(C2C(=O)CC(CC3CCN(C(=O)c4ccccc4)CC3)C2=O)c(C)c1 (stereo not shown) [Compound T70] | % | 80 |
| Cc1cc(C)c(C2=C(OC(=O)C(C)(C)C)CC(CC3CCOC3)C2=O)c(C)c1 (stereo not shown) [Compound P7] | % | 100 |
